- System: rabbit skeletal myofibrils (fast skeletal myofibrils)
- method_summary: Activation of fast skeletal myofibrils (PUMA assay, PK/LDH-coupled ATPase at pCa25)
- Assay type: biochemical
- test_conditions: AC1.4 determined according to the procedure of Example 39; reported as class symbols
readout_type: Mean AC1.4

// worked examples, Mean AC1.4 included
compound=CC(C)(CNc1ccc(-c2ccc3[nH]c(=O)[nH]c3c2)nn1)c1ccccc1F data_value="A (A=<1 uM)"
compound=CC(C)(CNc1ccc(-c2cnc(=O)[nH]c2)nn1)c1ccc(F)cc1 data_value="D (D=>20 uM)"
compound=CS(=O)(=O)N1CC(CNc2ccc(-c3ccc4[nH]ncc4c3)nn2)(c2ncccc2F)C1 data_value="D (D=>20 uM)"
compound=CC(C)(C)CCNc1ccc(-c2cccc(C(N)=O)c2)nn1 data_value="D (D=>20 uM)"
compound=COC(=O)c1cncc(-c2ccc(NCC(C)(C)c3ccc(F)cc3)nn2)c1 data_value="B (B=1-10 uM)"
compound=CC(C)(CNc1ccc(-c2cccc(C(=O)NCCN)c2)nn1)c1ccc(F)cc1 data_value="A (A=<1 uM)"

Alright, here's another compound for you.
-- ask Which measured Mean AC1.4 value corresponds to "CC(C)(CNc1ccc(-c2ccc3[nH]ncc3c2)nn1)c1ccc(F)cc1" ?
-- reply A (A=<1 uM)

====

- System: rabbit skeletal myofibrils (fast skeletal myofibrils)
- method_summary: Activation of fast skeletal myofibrils (PUMA assay, PK/LDH-coupled ATPase at pCa25)
- Type: biochemical
- test_conditions: AC1.4 determined according to the procedure of Example 39; reported as class symbols
- Description: Preparation of Fast Skeletal Myofibrils. […] Fast fiber activators were identified by measuring the enzymatic activity of muscle myofibril preparations using the proprietary PUMA™ (see, e.g., U.S. Pat. Nos. 6,410,254, 6,743,599, 7,202,051, and 7,378,254) assay system. […] This assay regenerates myosin-produced ADP into ATP by oxidizing NADH, producing an absorbance change at 340 nm. […]
readout_type: Mean AC1.4

// worked examples, Mean AC1.4 included
compound=COCc1ccccc1C(C)(C)CNc1ccc(-c2ccc3[nH]nc(N)c3c2)nn1 data_value="C (C=10-20 uM)"
compound=Cn1nc(N)c2cc(-c3ccc(NCC(C)(C)c4ccc(F)cc4)nn3)ccc21 data_value="B (B=1-10 uM)"
compound=NC(=O)c1ccnc(C2(CNc3ccc(-c4ccc5[nH]ncc5c4)nn3)CCC2)c1 data_value="C (C=10-20 uM)"
compound=CC(C)(C)OC(=O)NCc1cccc(-c2ccc(NCC(C)(C)c3ccc(F)cc3)nn2)c1 data_value="B (B=1-10 uM)"
compound=NC(=O)c1cccc(-c2ccc(NCCc3ccc(F)cc3)nn2)c1 data_value="D (D=>20 uM)"

-- ask Which measured Mean AC1.4 value corresponds to "CC(C)(CNc1ccc(-c2ccc3[nH]nc(N)c3c2)nn1)c1cccc(O)c1" ?
-- reply B (B=1-10 uM)

-- ask Which measured Mean AC1.4 value corresponds to "CC(C)(CNc1ccc(-c2ccnc(N)c2)nn1)c1ccc(F)cc1" ?
-- reply B (B=1-10 uM)

-- ask Which measured Mean AC1.4 value corresponds to "CC(C)(Cc1ccc(F)cc1)Nc1ccc(-c2ccc3[nH]c(=O)[nH]c3c2)nn1" ?
-- reply D (D=>20 uM)

-- ask Which measured Mean AC1.4 value corresponds to CC(Nc1ccc(-c2cccc(C(N)=O)c2)nn1)c1ccc(F)cc1 (stereo not shown) ?
-- reply C (C=10-20 uM)
